Tested on: Medicago sativa
Assay: Pre-emergence herbicidal activity against Medicago sativa (alfalfa) assessed as growth inhibition at 1500 ai g/ha after 20 days by green house test
Assay type: functional

[
  {
    "compound": "COP(=O)(COC(=O)COc1ccc(Cl)cc1Cl)OC",
    "growth inhibition (GI), %": 75
  },
  {
    "compound": "COP(=O)(OC)C(C)OC(=O)COc1ccc(F)cc1Cl (stereo unspecified)",
    "growth inhibition (GI), %": 90
  },
  {
    "compound": "COP(=O)(OC)C(OC(=O)COc1ccc(Cl)cc1Cl)c1cccc(Br)c1 (stereo unspecified)",
    "growth inhibition (GI), %": 90
  },
  {
    "compound": "COP(=O)(OC)C(OC(=O)COc1ccc(F)c(Cl)c1)C(Cl)(Cl)Cl (stereo unspecified)",
    "growth inhibition (GI), %": 50
  },
  {
    "compound": "COP(=O)(OC)C(OC(=O)COc1cccc(C(F)(F)F)c1)c1cccc([N+](=O)[O-])c1 (stereo unspecified)",
    "growth inhibition (GI), %": 50
  },
  {
    "compound": "COP(=O)(OC)C(C)OC(=O)COc1ccc(Br)cc1Br (stereo unspecified)",
    "growth inhibition (GI), %": 75
  },
  {
    "compound": "COP(=O)(OC)C(OC(=O)COc1ccc(Cl)cc1C)c1cccc([N+](=O)[O-])c1 (stereo unspecified)",
    "growth inhibition (GI), %": 75
  },
  {
    "compound": "COP(=O)(OC)C(OC(=O)COc1ccc(Cl)cc1Cl)C(Cl)(Cl)Cl (stereo unspecified)",
    "growth inhibition (GI), %": 90
  }
]

* * *

Assay: Toxicity against Oryza sativa (rice) assessed as growth inhibition at 600 ai g/ha post-emergent application measured after 20 days by green house crop selectivity test
Format: organism-based
Settings: in vivo, read-out: GI

[
  {
    "compound": "COP(=O)(OC)C(C)OC(=O)COc1ccc(Cl)cc1Cl (stereo unspecified)",
    "units.text": "%",
    "inhibition at 480 h": 0
  }
]

* * *

# key: entry, value: growth inhibition (GI)
Tested on: Medicago sativa
Assay: Post-emergence herbicidal activity against Medicago sativa (alfalfa) assessed as growth inhibition at 1500 ai g/ha after 20 days by green house test
Type: functional

[
  {
    "compound": "COP(=O)(OC)C(C)OC(=O)COc1ccc(F)cc1Cl (configuration not stated)",
    "growth inhibition (GI) [%]": 90
  },
  {
    "compound": "COP(=O)(OC)C(OC(=O)COc1ccc(Cl)c(C)c1)c1cccc([N+](=O)[O-])c1 (configuration not stated)",
    "growth inhibition (GI) [%]": 75
  },
  {
    "compound": "COP(=O)(OC)C(OC(=O)COc1ccc(Cl)cc1C)c1cccc([N+](=O)[O-])c1 (configuration not stated)",
    "growth inhibition (GI) [%]": 50
  },
  {
    "compound": "COP(=O)(OC)C(OC(=O)COc1ccc(F)cc1F)c1cccc([N+](=O)[O-])c1 (configuration not stated)",
    "growth inhibition (GI) [%]": 50
  },
  {
    "compound": "COP(=O)(OC)C(OC(=O)COc1ccc(Cl)cc1Cl)c1cccc([N+](=O)[O-])c1 (configuration not stated)",
    "growth inhibition (GI) [%]": 90
  },
  {
    "compound": "COP(=O)(OC)C(OC(=O)COc1ccc(F)c(Cl)c1)c1cccc([N+](=O)[O-])c1 (configuration not stated)",
    "growth inhibition (GI) [%]": 50
  },
  {
    "compound": "COP(=O)(OC)C(C)OC(=O)COc1ccc(Cl)cc1Cl (configuration not stated)",
    "growth inhibition (GI) [%]": 90
  },
  {
    "compound": "COP(=O)(OC)C(OC(=O)COc1ccc(F)c(Cl)c1)c1ccccc1 (configuration not stated)",
    "growth inhibition (GI) [%]": 50
  },
  {
    "compound": "COP(=O)(OC)C(OC(=O)COc1ccc(Cl)cc1Cl)c1ccccc1 (configuration not stated)",
    "growth inhibition (GI) [%]": 90
  },
  {
    "compound": "COP(=O)(OC)C(C)OC(=O)COc1ccc(F)c(Cl)c1 (configuration not stated)",
    "growth inhibition (GI) [%]": 75
  },
  {
    "compound": "COP(=O)(OC)C(C)OC(=O)COc1ccc(Br)cc1 (configuration not stated)",
    "growth inhibition (GI) [%]": 50
  },
  {
    "compound": "COP(=O)(OC)C(OC(=O)COc1ccc(Cl)cc1)c1cccc([N+](=O)[O-])c1 (configuration not stated)",
    "growth inhibition (GI) [%]": 75
  },
  {
    "compound": "COP(=O)(OC)C(C)OC(=O)COc1ccc(F)cc1 (configuration not stated)",
    "growth inhibition (GI) [%]": 50
  },
  {
    "compound": "O=C(O)COc1ccc(Cl)cc1Cl",
    "growth inhibition (GI) [%]": 90
  },
  {
    "compound": "COP(=O)(OC)C(OC(=O)COc1ccc(F)cc1Cl)c1ccccc1 (configuration not stated)",
    "growth inhibition (GI) [%]": 75
  },
  {
    "compound": "COP(=O)(OC)C(C)OC(=O)COc1ccc(Br)cc1Br (configuration not stated)",
    "growth inhibition (GI) [%]": 90
  },
  {
    "compound": "COP(=O)(OC)C(C)OC(=O)COc1ccc(Cl)cc1 (configuration not stated)",
    "growth inhibition (GI) [%]": 50
  },
  {
    "compound": "COP(=O)(OC)C(OC(=O)COc1ccc(F)cc1)c1cccc([N+](=O)[O-])c1 (configuration not stated)",
    "growth inhibition (GI) [%]": 50
  },
  {
    "compound": "COP(=O)(OC)C(OC(=O)COc1ccc(F)c(Cl)c1)C(Cl)(Cl)Cl (configuration not stated)",
    "growth inhibition (GI) [%]": 50
  },
  {
    "compound": "COP(=O)(OC)C(OC(=O)COc1ccc(C)cc1)c1ccccc1 (configuration not stated)",
    "growth inhibition (GI) [%]": 50
  },
  {
    "compound": "COP(=O)(OC)C(C)OC(=O)COc1cccc(C)c1C (configuration not stated)",
    "growth inhibition (GI) [%]": 50
  },
  {
    "compound": "COP(=O)(OC)C(OC(=O)COc1ccc(F)cc1Cl)c1cccc([N+](=O)[O-])c1 (configuration not stated)",
    "growth inhibition (GI) [%]": 50
  },
  {
    "compound": "COP(=O)(COC(=O)COc1ccc(Cl)cc1Cl)OC",
    "growth inhibition (GI) [%]": 90
  },
  {
    "compound": "COP(=O)(OC)C(OC(=O)COc1ccc(Cl)cc1)c1ccccc1O (configuration not stated)",
    "growth inhibition (GI) [%]": 75
  },
  {
    "compound": "COP(=O)(OC)C(C)OC(=O)COc1ccc(F)cc1F (configuration not stated)",
    "growth inhibition (GI) [%]": 50
  },
  {
    "compound": "COP(=O)(OC)C(OC(=O)COc1cccc(C)c1)c1ccccc1 (configuration not stated)",
    "growth inhibition (GI) [%]": 50
  },
  {
    "compound": "COP(=O)(OC)C(OC(=O)COc1ccc(Cl)cc1Cl)c1cccc(Br)c1 (configuration not stated)",
    "growth inhibition (GI) [%]": 90
  }
]

These entries and their values trace back to ChEMBL document CHEMBL3045592.
